Assay: NCI Yeast Anticancer Drug Screen. Data for the mlh1 rad18 strain (AID 175)
Conditions: S. cerevisiae mlh1 rad18 strain growth inhibition; at 50.0 µM; active compounds read high
Compounds without any hit were thinned out: in the full panel of roughly 79,000, 15% have a hit.
measurement_type: growth inhibition (%)
Return type: number; implicit unit %.

1. CC/C(=N\N=C(/CC)c1cccs1)c1cccs1 | -3.75

What the record says about CCCCCOC(c1cc2c(cc1Br)OCO2)C(C)Br (stereo not given) : growth inhibition is 13.5

response.value for Cn1c(=O)c2c(ncn2CCNCC(O)c2cc(C(C)(C)C)c(O)c(C(C)(C)C)c2)n(C)c1=O (stereo not given) (field: growth inhibition) = 11.2

The compound listed as COc1ccc2c(c1)CCC(OS(=O)(=O)CC13CCC(CC1=O)C3(C)C)C2=O (stereo not given) shows growth inhibition equal to -0.45

Notebook: CCC(C1=CCCCC1)c1nc2c([nH]1)c(=O)n(C)c(=O)n2C (stereo not given) , growth inhibition read as 45.5

Query CNc1ccc(Br)cc1[N+](=O)[O-] yields growth inhibition of -15.4
